- Test system: NCI-H522 lung
- assay.overview: NCI tumour cell line growth inhibition, 48 h
The reader will find reported TGI values listed item by item below.

Worked set:
## Task Note down TGI recorded for O=S(=O)(c1cc(Cl)ccc1Cl)N1CCN(S(=O)(=O)c2cc(Cl)ccc2Cl)CC1
## Result > 100 µM

## Task Note down TGI recorded for O=C(c1ccccc1)c1nnn(Cc2cccc(Cl)c2)c1C(=O)c1ccccc1
## Result > 100 µM

## Task Note down TGI recorded for Cc1c(CNc2ccc(Cl)c(C(=O)NC(CC(=O)O)C(=O)O)c2)ccc2nc(N)nc(N)c12 (stereo not given)
## Result 682 µM

## Task Note down TGI recorded for COC1CCC(=C2C(=O)OC(C)(C)OC2=O)N1 (stereo not given)
## Result > 100 µM

## Task Note down TGI recorded for C[N+](C)(C)CC(=O)N/N=C(/C=C/c1ccccc1)CC1OC(=O)c2ccccc21 (stereo not given)
## Result > 100 µM

Turning now to a further compound:
## Task Note down TGI recorded for COc1ccc(CN(O)C2C(CO)OC(n3cc(I)c(=O)[nH]c3=O)C2O)cc1 (stereo not given)
## Result > 100 µM

* * *

The reader will find reported TGI values listed item by item below.
- Test system: SW-620 colon
- assay.overview: NCI tumour cell line growth inhibition, 48 h

Worked set:
## Task Note down TGI recorded for Cc1c2c(n3c(nc4ccccc43)c1C#N)SCC2
## Result > 10 µM

## Task Note down TGI recorded for [O-][n+]1onc2c3nn(-c4ccccc4)nc3ccc21
## Result > 100 µM

## Task Note down TGI recorded for O=C1Cc2c(-c3ccc(Cl)cc3)cc(-c3ccccc3)nc2-c2ccccc2N1
## Result > 46 µM

## Task Note down TGI recorded for O=P(O)(O)OC1C(OP(=O)(O)O)C(OP(=O)(O)O)C(OP(=O)(O)O)C(OP(=O)(O)O)C1OP(=O)(O)O (stereo unspecified)
## Result > 2000 µM

## Task Note down TGI recorded for CCS[C@H]1NC(=O)C1[C@H](C)O[Si](C)(C)C(C)(C)C (stereo partly specified)
## Result > 100 µM

New cases:
## Task Note down TGI recorded for CN(C)C1(C#N)CCC2(CC1)OCCO2
## Result > 100 µM

## Task Note down TGI recorded for [N-]=[N+]=Nc1ccc(S(=O)(=O)Oc2cc(OS(=O)(=O)c3ccc(N=[N+]=[N-])cc3)cc(OS(=O)(=O)c3ccc(N=[N+]=[N-])cc3)c2)cc1
## Result > 10 µM

## Task Note down TGI recorded for COCn1c(C)c(C)c2c(=O)oc(=O)[nH]c21
## Result > 100 µM

## Task Note down TGI recorded for Cc1cc(O)c(C(C)C)cc1NC(=O)Nc1cccc2ccccc12
## Result > 100 µM

## Task Note down TGI recorded for CCSSCS(C)(=O)=O
## Result > 100 µM

## Task Note down TGI recorded for CCCCc1ccc2nc(NC(=O)OC)[nH]c2c1
## Result > 60.5 µM

* * *

- Tested on: 786-0 renal
- assay.overview: NCI tumour cell line growth inhibition, 48 h
The reader will find reported TGI values listed item by item below.

## Task Provide TGI, system 786-0 renal, entry COc1ccc(C(=O)c2cc3c(N)c(C(=O)Nc4cccc(Cl)c4)sc3nc2C)cc1
## Result > 33.3 µM

## Task Provide TGI, system 786-0 renal, entry COC(=O)C1=C(O)C(O)=C(C(=O)OC)CC1
## Result > 100 µM

## Task Provide TGI, system 786-0 renal, entry CC(=O)OC1COC(N2C(=O)C(=O)c3c(C)cc(Cl)nc32)C(OC(C)=O)C1OC(C)=O (centres undefined)
## Result > 100 µM

Turning now to a further molecule:
## Task Provide TGI, system 786-0 renal, entry CCOP1(=O)OCC2OC(n3cnc4c(N)ncnc43)C(O)C2O1 (centres undefined)
## Result > 100 µM

* * *

- Test system: NCI-H226 lung
- assay.overview: NCI tumour cell line growth inhibition, 48 h
The reader will find reported TGI values listed item by item below.

Worked set:
## Task Note down TGI recorded for COC(=O)C1=Cc2cc3c(cc2[C@H](c2ccc4c(c2)OCO4)C1C(=O)OC)OCO3 (some centres not stated)
## Result > 100 µM

## Task Note down TGI recorded for CCCOC(=O)C1CCC(=O)N1C(=O)C(Cl)Cl (configuration not stated)
## Result > 100 µM

## Task Note down TGI recorded for C=Nc1ccc([N+](=O)[O-])cc1
## Result > 100 µM

## Task Note down TGI recorded for NC(=O)C/C=C/CC(N)=O
## Result > 100 µM

New cases:
## Task Note down TGI recorded for O=C(c1ccccc1)c1nnn(Cc2cccc(Cl)c2)c1C(=O)c1ccccc1
## Result > 100 µM

## Task Note down TGI recorded for COC(=O)C1=C(O)C(O)=C(C(=O)OC)CC1
## Result > 100 µM

## Task Note down TGI recorded for Cc1c(CNc2ccc(Cl)c(C(=O)NC(CC(=O)O)C(=O)O)c2)ccc2nc(N)nc(N)c12 (configuration not stated)
## Result > 1000 µM

* * *

- System: SK-OV-3 ovarian
- assay.overview: NCI tumour cell line growth inhibition, 48 h
The reader will find reported TGI values listed item by item below.
Answer in µM, number only, no unit symbol.

## Task Note down TGI recorded for O=C(CCCCCCc1nc2ccc(Br)cc2[nH]1)NO
## Result 3.52

## Task Note down TGI recorded for O=C1CCC/C=C\C[C@H]2C=C(Cl)C(=O)/C2=C/C[C@H](CCCCC(F)(F)F)OC(=O)CCC/C=C\C[C@H]2C=C(Cl)C(=O)/C2=C/C[C@H](CCCCC(F)(F)F)O1
## Result 5.17

## Task Note down TGI recorded for COc1cc([C@@H]2c3cc4c(cc3[C@H](OC3OC5COC(c6ccccc6)OC5C(O)C3O)[C@H]3COC(=O)[C@H]23)OCO4)cc(OC)c1OC (stereo not given in full)
## Result 18.5

## Task Note down TGI recorded for CCc1nc2ccccc2c(=O)n1/N=C(\N=Nc1ccc(Cl)cc1)c1ccc(N(C)C)cc1
## Result 99.4

## Task Note down TGI recorded for CC/C=C/[C@@H]1C=C[C@@H]2CCC[C@H]2[C@@H]1CC[C@H](O)[C@H](C)N
## Result 4.15

Turning now to a further compound:
## Task Note down TGI recorded for Clc1ccc(Cl)c(N/N=C\c2c[nH]c3ccccc23)c1
## Result 27.2

* * *

The reader will find reported TGI values listed item by item below.
- Test system: HOP-62 NSCLC
- assay.overview: NCI tumour cell line growth inhibition, 48 h

Worked set:
## Task Note down TGI recorded for O=C(c1ccccc1)c1nnn(Cc2cccc(Cl)c2)c1C(=O)c1ccccc1
## Result > 100 µM

## Task Note down TGI recorded for O=C1CCC/C=C\C[C@H]2C=C(Cl)C(=O)/C2=C/C[C@H](CCCCC(F)(F)F)OC(=O)CCC/C=C\C[C@H]2C=C(Cl)C(=O)/C2=C/C[C@H](CCCCC(F)(F)F)O1
## Result 1.46 µM

## Task Note down TGI recorded for CSc1nc2ccccc2c(=O)n1/N=C1\C(=O)N(CN2CCOCC2)c2ccc(Cl)cc21
## Result > 100 µM

New cases:
## Task Note down TGI recorded for COc1ccc(C(=O)CC2(O)C(=O)Nc3c(Cl)ccc(Cl)c32)cc1 (configuration not stated)
## Result > 100 µM

## Task Note down TGI recorded for CCCC(Sc1nc(N)nc2nc[nH]c12)C(=O)O (configuration not stated)
## Result > 100 µM

## Task Note down TGI recorded for O=C(Cn1ccnc1[N+](=O)[O-])NCCO
## Result > 100 µM

## Task Note down TGI recorded for [O-][n+]1onc2c3nn(-c4ccccc4)nc3ccc21
## Result > 100 µM

## Task Note down TGI recorded for CCc1ccc(Cc2ccc(CC)c(NC(=O)C(=O)Cc3nc4ccccc4nc3C)c2CC)c(CC)c1NC(=O)C(=O)Cc1nc2ccccc2nc1C
## Result > 100 µM

## Task Note down TGI recorded for CN(C(=O)C12C3C4(C(=O)O)C1(C(=O)N(C)C(C)(C)C)C1C2(C(=O)O)C3(C(=O)N(C)C(C)(C)C)C14C(=O)N(C)C(C)(C)C)C(C)(C)C (configuration not stated)
## Result > 100 µM

## Task Note down TGI recorded for Cc1cc(Cl)n2c(nc3ccccc32)c1C#N
## Result 3.45 µM

## Task Note down TGI recorded for C(=N\Nc1ncc(-c2cc3cc4c(cc3o2)OCO4)s1)/c1c[nH]c2ccccc12
## Result 7.95 µM

## Task Note down TGI recorded for COC(=O)C1Cc2c([nH]c3ccccc23)[C@H](CC(C)C)N1 (some centres not stated)
## Result > 100 µM

## Task Note down TGI recorded for CC1(CCCC2(C)CCNC2=O)OCCO1 (configuration not stated)
## Result > 10 µM

## Task Note down TGI recorded for O=c1c(Cl)nsnc1Cl
## Result 34.5 µM
